TESTED TARGET: SARS-CoV-2 spike receptor binding domain (RBD), wild type (SARS-CoV-2, UniProt P0DTC2 319-539)
ASSAY PROTOCOL: ELISA, RBD protein coated, mAb titrated
QUANTITY KIND: EC50 (ng/mL)

BINDER: C535 (antibody, V domains shown) VH: EVQLVESGGALVQPGRSLRLSCAASGFTFDDYAMHWVRQAPGKGLEWVSSISWNGVSIGYADSVRGRFTISRDNAKNSLYLQMNSLKIGDTAFYYCARGLDGSSSASPDSWGQGTLVTVSS VL: DIQMTQSPSSVSASVGDRVTITCRASQGIGSWLAWYQQKPGKAPKLLIYLASSLQSGVPSRFSGSGSGTYFTLTISGLQPEDFATYYCQQGNSFPLTFGGGTKVEIK
READOUT UNIT: ng/mL
MEASURED VALUE: 2.46
